TESTED SYSTEM: first (BD1: amino acids K57-E168) bromodomain of BRD4 (Homo sapiens)
Construct: His-tagged first (BD1: amino acids K57-E168)
EXPERIMENT: TR-FRET bromodomain binding assay, BRD4 BD1
EXPERIMENTAL SETUP: TR-FRET assay protocol (A-G, compound concentration range); Ki calculated from IC50, probe Kd and probe concentration; read-out: TR-FRET Binding Ki: BRD4 (BDI_K57-E168)
pKi: −log10 of the molar value.
Readings of pKi for the listed compounds
PROPERTY MEASURED: pKi

| COMPOUND | PROPERTY MEASURED | MODIFIER | RECORDED RESULT |
| --- | --- | --- | --- |
| Cc1cc(-c2ccccc2Oc2ccccc2)c[nH]c1=O [Example 260] | pKi | = | 6.67 |
| CN(C)c1ncc(-c2cc(=O)n(C)nc2-c2ccccc2Oc2ccccc2)cn1 [Example 192] | pKi | = | 5.98 |
| Cn1cc(-c2cc(NS(C)(=O)=O)ccc2Oc2cccc(F)c2)ccc1=O [Example 246] | pKi | = | 7.37 |
| COc1cc(=O)n(C)nc1-c1ccccc1OCC1CCOCC1 [Example 47] | pKi | = | 5.28 |
| CC(=O)Nc1ccc(Oc2ccccc2)c(-c2ccc(=O)n(C)n2)c1 [Example 12] | pKi | = | 6.24 |
| CN(C)c1cccc(-c2cc(=O)n(C)nc2-c2ccccc2Oc2ccccc2)c1 [Example 209] | pKi | < | 5.26 |
| Cn1nc(-c2ccccc2Oc2ccccc2)c(-c2ccc(Cc3ccccc3)cc2)cc1=O [Example 93] | pKi | < | 4.89 |
| Cn1cc(-c2cc(NS(C)(=O)=O)ccc2OCC2CCOCC2)ccc1=O [Example 250] | pKi | = | 6.84 |
| COc1cc(=O)n(C)nc1-c1ccccc1OCC1CCCC1 [Example 46] | pKi | = | 5.36 |
